Biological target: recombinant human FLAP protein (Homo sapiens)
Sequence (P20292 whole entry): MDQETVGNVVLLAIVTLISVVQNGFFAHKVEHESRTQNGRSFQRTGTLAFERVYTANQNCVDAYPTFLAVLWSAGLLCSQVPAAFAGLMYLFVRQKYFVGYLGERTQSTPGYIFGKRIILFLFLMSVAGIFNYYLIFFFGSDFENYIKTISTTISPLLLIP
Assay: FLAP binding assay (Scintillation Proximity Assay, displacement of [125I]L-691,831)
Settings: recombinant human FLAP membranes, [125I]L-691,831 probe; read-out: FLAP SPA IC50
So basically, if IC50 comes in under 10 nM it's fulfilled, and if it's 10 nM or more it's not fulfilled.

COMPOUND	ANSWER_LABEL
Nc1ncc(-c2ccc(C3(c4noc(-c5cnn(CC(=O)N6CCCCC6)c5)n4)CCC3)cc2)cn1 [Example 127]	fulfilled
N#Cc1ccc(-c2nc(C3(c4ccc(-c5cnc(N)nc5)cc4)CCC3)no2)nc1 [Example 186]	not fulfilled
CNC(=O)Cn1cc(-c2nc(C3(c4ccc(-c5cnc(N)nc5)cc4)CCC3)no2)cn1 [Example 81]	fulfilled
Cc1cc(-c2nc(C3(c4ccc(-c5cnc(N)nc5)cc4)CCC3)no2)ccc1O [Example 99]	fulfilled
Cn1cncc1-c1nc(C2(c3ccc(-c4cnc(N)nc4)cc3)CCC2)no1 [Example 176]	fulfilled
Nc1ncc(-c2ccc(C3(c4noc(-c5ccc(O)c(Cl)c5)n4)CCC3)cc2)cn1 [Example 100]	fulfilled
CN(C)C(=O)Cn1cccc(-c2nc(C3(c4ccc(-c5cnc(N)nc5)cc4)CCC3)no2)c1=O [Example 119]	not fulfilled
CN1CCCCC1c1nc(C2(c3ccc(-c4cnc(N)nc4)cc3)CCC2)no1 (centres unmarked) [Example 280]	not fulfilled
